SYSTEM: 5-hydroxytryptamine receptor 1A (Rattus norvegicus, UniProt P19327)
Sequence (P19327 whole entry): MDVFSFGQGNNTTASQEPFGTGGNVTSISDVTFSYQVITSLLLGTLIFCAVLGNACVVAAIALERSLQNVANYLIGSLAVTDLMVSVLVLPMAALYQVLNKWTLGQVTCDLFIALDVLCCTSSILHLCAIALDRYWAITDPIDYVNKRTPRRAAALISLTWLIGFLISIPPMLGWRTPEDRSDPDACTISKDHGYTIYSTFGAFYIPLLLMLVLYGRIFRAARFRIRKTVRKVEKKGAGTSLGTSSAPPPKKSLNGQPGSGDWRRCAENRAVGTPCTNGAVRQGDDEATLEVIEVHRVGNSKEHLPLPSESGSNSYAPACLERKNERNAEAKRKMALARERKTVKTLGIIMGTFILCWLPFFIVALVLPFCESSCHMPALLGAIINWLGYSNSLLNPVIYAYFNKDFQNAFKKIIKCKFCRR
TEST METHOD NOTES: Compound was evaluated for its binding affinity with 5-hydroxytryptamine 1A receptor using membranes prepared from rat cerebral cortex
Type: tissue-based
READOUT LABEL: Ki (nM)
Write the number in nM without appending the unit.

Quote Ki reported for O=C(c1cccc(CN2CCN(c3nsc4ccccc34)CC2)c1)N1CCCCC1 please. 2.5

----------
SYSTEM: 5-hydroxytryptamine receptor 1A (Rattus norvegicus, UniProt P19327)
TEST METHOD NOTES: Compound was evaluated for its binding affinity against 5-hydroxytryptamine 1A receptor from rat cerebral cortex
Format: tissue-based
This section presents compounds with their documented pKi values.
Recall that pKi is obtained by taking minus log10 of the concentration measured in molar.

The cases that follow already have their pKi on record.
COMPOUND	RESULT
CC(C)Oc1cc(F)ccc1N1CCN(Cc2cccc(C(=O)N3CCCCC3)c2)CC1	8.38
O=C(c1cccc(CN2CCN(c3ccccc3F)CC2)c1)N1CCCCC1	7.80
O=C(c1cccc(CN2CCN(c3cccc(Cl)c3)CC2)c1)N1CCCCC1	8.92
CC(C)Oc1ccccc1N1CCN(CCc2ccc(C(=O)N3CCCCC3)cc2)CC1	8.60

Indicate the recorded pKi value for this compound: COc1ccccc1N1CCN(Cc2cccc(C(=O)N3CCCCCC3)c2)CC1 9.34

Return the recorded pKi value; entry: CC(C)Oc1ccccc1N1CCN(Cc2cccc(C(=O)N(C)C3CCCCC3)c2)CC1 8.92

Look up and report measured pKi for this entry: O=C(c1cccc(CN2CCN(c3cccc([N+](=O)[O-])c3)CC2)c1)N1CCCCC1 7.62

Give pKi for the following compound: O=C(c1cccc(CN2CCN(c3ccc(Cl)cc3)CC2)c1)N1CCCCC1 6.92

Provide pKi value for the following compound: CC(C)Oc1ccccc1N1CCN(Cc2cccc(C(N)=O)c2)CC1 7.74

Entry CCN1CCCC1CNC(=O)c1cccc(CN2CCN(c3ccccc3OC(C)C)CC2)c1 (stereo unspecified) needs its pKi filled in; supply it. 6.92

----------
SYSTEM: Adrenergic receptor alpha-1 (Rattus norvegicus, UniProt P15823+P23944+P43140)
Sequence (P15823 whole entry): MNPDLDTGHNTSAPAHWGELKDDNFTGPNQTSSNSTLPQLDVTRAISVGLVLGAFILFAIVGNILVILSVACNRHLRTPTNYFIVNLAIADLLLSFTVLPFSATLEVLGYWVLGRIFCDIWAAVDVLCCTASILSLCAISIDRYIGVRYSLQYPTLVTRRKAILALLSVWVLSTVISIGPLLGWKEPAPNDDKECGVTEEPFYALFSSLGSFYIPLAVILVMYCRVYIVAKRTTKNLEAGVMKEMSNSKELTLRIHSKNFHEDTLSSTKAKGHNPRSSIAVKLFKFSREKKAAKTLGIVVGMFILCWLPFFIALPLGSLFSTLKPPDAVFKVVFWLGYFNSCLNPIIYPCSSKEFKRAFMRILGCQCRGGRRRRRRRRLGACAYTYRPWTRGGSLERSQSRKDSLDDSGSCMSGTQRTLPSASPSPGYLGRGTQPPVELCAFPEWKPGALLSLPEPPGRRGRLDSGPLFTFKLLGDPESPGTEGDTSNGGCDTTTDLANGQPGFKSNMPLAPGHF
Sequence (P23944 whole entry): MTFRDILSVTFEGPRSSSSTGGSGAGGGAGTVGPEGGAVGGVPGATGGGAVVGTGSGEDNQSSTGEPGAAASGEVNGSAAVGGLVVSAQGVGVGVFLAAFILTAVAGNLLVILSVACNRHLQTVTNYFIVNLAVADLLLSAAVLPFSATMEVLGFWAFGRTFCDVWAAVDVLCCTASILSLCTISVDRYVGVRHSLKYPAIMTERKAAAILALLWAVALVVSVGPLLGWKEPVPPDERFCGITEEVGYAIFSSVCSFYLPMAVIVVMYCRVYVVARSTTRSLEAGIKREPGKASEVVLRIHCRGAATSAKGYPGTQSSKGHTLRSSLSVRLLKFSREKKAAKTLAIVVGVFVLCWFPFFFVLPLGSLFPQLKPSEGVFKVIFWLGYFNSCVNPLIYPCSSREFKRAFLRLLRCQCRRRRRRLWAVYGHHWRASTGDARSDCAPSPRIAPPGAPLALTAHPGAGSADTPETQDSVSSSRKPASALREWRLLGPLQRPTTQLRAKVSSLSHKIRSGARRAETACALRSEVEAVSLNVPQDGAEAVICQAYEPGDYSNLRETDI
Sequence (P43140 whole entry): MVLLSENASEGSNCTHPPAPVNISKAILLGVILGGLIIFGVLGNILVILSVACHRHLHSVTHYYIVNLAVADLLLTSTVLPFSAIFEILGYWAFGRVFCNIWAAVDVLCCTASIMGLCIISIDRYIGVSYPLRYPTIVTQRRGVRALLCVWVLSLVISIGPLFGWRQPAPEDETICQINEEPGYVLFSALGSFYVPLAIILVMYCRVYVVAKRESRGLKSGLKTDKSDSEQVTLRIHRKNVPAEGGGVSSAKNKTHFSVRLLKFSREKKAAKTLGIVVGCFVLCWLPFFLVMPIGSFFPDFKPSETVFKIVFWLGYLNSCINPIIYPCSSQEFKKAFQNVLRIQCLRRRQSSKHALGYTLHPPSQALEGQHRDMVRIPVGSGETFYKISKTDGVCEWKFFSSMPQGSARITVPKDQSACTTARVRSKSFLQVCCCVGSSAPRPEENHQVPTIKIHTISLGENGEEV
TEST METHOD NOTES: Binding affinity against Alpha-1 adrenergic receptor from rat cerebral cortex
Assay type: tissue-based
Each entry below lists one item and its recorded Ki value.
A number alone suffices; assume nM.

Reference set, count: 6
MOLECULE	Ki / nM
O=C(c1cccc(CN2CCN(C3COc4ccccc4O3)CC2)c1)N1CCCCC1 (stereo not given)	21
O=C(c1cccc(CN2CCN(c3cccc4ccccc34)CC2)c1)N1CCCCC1	57
CC(C)Oc1ccccc1N1CCN(Cc2cccc(C(=O)N3CCCC3)c2)CC1	1.9
CC(C)Oc1ccccc1N1CCN(CCCCc2ccc(C(=O)N3CCCCC3)cc2)CC1	284
CC(C)Oc1ccccc1N1CCN(Cc2cccc(C(=O)NC3CCCCC3)c2)CC1	3.4
N#Cc1ccccc1N1CCN(Cc2cccc(C(=O)N3CCCCC3)c2)CC1	19

Tell us which Ki value is on record for CC(C)Oc1ccccc1N1CCN(Cc2cccc(C(=O)N3CCc4ccccc43)c2)CC1 1.7

Please list Ki recorded for the molecule CCCCN(CCCC)C(=O)c1cccc(CN2CCN(c3ccccc3OC(C)C)CC2)c1 3.3

Give Ki for the following molecule: CC(C)Oc1ccccc1N1CCN(Cc2cccc(C(=O)Nc3ccc(F)cc3)c2)CC1 11

Give the reported value of Ki for this record: CCN1CCCC1CNC(=O)c1cccc(CN2CCN(c3ccccc3OC(C)C)CC2)c1 (stereo not given) 486

----------
Test system: Rattus norvegicus
TEST METHOD NOTES: Percent catalepsy in male Spargue-Dawley rat at pretreatment time 240 mins and when administered ip at dose 50 mg/kg
Format: functional
ASSAY SETUP: route intraperitoneal
Listed here are compounds together with their documented Catalepsy.
Give the value; after it, write the unit.

# annotated cases, reported Catalepsy shown
SMI	Catalepsy
CCN(CC)C(=O)c1cccc(CN2CCN(c3ccccc3OC(C)C)CC2)c1	36.8%
CC(C)Oc1ccccc1N1CCN(Cc2cccc(C(=O)N3CCCCCCC3)c2)CC1	17.6%
CC(C)Oc1cc(F)ccc1N1CCN(Cc2cccc(C(=O)N3CCCCC3)c2)CC1	50%
O=C(c1cccc(CN2CCN(c3cccc(Cl)c3)CC2)c1)N1CCCCC1	33.9%

Under Rattus norvegicus: report Catalepsy of CC(C)Oc1ccccc1N1CCN(Cc2cccc(C(=O)N(C)C3CCCCC3)c2)CC1 . 58.1%

Please report the measured Catalepsy for CC(C)Oc1ccccc1N1CCN(Cc2cccc(C(=O)N3CCCCCC3)c2)CC1 tested on Rattus norvegicus. 24.1%

----------
Reported Ki values are given for each entry in this list.
SYSTEM: 5-hydroxytryptamine receptor 1A (Rattus norvegicus, UniProt P19327)
TEST METHOD NOTES: Compound was evaluated for its binding affinity against 5-hydroxytryptamine 1A receptor from rat cerebral cortex
Type: tissue-based
Answer format reminder: number followed by unit.

SMI	Ki
N#Cc1ccccc1N1CCN(Cc2cccc(C(=O)N3CCCCC3)c2)CC1	2.5 nM

Report Ki, nothing else, for this compound: O=C(c1cccc(CN2CCN(c3cccc(C(F)(F)F)c3)CC2)c1)N1CCCCC1 2.3 nM

Query Ki for CCN(CC)C(=O)c1cccc(CN2CCN(c3ccccc3OC(C)C)CC2)c1 2.1 nM

For the compound CC(C)Oc1ccccc1N1CCN(Cc2cccc(C(=O)N3CCCC3)c2)CC1 , give its measured Ki value. 3.6 nM

Consider the compound O=C(c1cccc(CN2CCN(c3cccc4ccccc34)CC2)c1)N1CCCCC1 . State its measured Ki. 1.8 nM

----------
SYSTEM: Adrenergic receptor alpha-1 (Rattus norvegicus, UniProt P15823+P23944+P43140)
Sequence (P15823 whole entry): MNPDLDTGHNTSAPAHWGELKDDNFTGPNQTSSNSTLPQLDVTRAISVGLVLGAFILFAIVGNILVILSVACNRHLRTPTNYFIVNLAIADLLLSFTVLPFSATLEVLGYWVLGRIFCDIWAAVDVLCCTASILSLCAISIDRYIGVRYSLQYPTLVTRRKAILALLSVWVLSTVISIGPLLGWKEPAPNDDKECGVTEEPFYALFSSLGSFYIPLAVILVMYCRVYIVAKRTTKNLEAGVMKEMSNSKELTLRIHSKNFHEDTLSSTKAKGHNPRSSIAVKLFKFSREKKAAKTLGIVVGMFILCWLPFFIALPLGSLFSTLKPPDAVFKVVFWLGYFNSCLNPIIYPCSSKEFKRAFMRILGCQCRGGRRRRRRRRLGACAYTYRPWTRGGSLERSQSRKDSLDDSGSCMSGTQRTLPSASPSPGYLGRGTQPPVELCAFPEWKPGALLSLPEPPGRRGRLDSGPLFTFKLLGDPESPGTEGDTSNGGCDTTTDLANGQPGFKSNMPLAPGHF
Sequence (P23944 whole entry): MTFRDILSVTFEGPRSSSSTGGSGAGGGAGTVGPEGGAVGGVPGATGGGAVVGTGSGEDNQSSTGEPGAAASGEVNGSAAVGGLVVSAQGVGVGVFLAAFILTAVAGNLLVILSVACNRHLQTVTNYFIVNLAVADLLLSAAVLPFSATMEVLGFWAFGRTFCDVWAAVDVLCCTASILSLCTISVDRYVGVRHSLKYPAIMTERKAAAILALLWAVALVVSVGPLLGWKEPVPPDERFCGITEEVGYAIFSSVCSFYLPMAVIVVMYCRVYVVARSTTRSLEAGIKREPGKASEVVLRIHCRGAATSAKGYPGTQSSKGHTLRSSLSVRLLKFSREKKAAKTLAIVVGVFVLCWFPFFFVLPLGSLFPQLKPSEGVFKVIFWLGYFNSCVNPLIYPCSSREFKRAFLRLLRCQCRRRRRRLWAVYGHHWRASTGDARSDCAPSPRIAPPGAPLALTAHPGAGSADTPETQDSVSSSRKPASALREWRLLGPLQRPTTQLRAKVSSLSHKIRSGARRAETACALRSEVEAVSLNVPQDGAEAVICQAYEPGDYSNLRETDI
Sequence (P43140 whole entry): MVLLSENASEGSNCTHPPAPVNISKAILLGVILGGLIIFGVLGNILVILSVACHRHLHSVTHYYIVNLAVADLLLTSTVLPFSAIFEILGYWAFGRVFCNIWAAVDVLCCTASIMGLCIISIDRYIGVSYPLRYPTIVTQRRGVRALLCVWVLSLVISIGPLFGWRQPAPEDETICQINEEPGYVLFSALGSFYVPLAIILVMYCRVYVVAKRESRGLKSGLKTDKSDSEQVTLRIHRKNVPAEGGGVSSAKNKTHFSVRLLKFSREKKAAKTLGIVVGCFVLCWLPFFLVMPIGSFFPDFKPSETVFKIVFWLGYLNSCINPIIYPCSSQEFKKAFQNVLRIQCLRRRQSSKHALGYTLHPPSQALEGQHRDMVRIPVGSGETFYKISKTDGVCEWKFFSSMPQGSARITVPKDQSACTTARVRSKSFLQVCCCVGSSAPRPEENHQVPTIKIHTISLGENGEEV
TEST METHOD NOTES: Binding affinity against Alpha-1 adrenergic receptor from rat cerebral cortex
Assay type: tissue-based
// reported Ki per item
Report as a plain number; the unit nM is understood.

Take a look at these entries with their results.
SMI	Ki / nM
CC(C)Oc1ccccc1N1CCN(Cc2cccc(C(=O)N3CCC3)c2)CC1	1.2
O=C(c1cccc(CN2CCN(c3ccc4ccoc4c3)CC2)c1)N1CCCCC1	13
CC(C)Oc1ccccc1N1CCN(Cc2cccc(C(=S)N3CCCCC3)c2)CC1	2.3
CC(C)Oc1ccccc1N1CCN(CCc2ccc(C(=O)N3CCCCC3)cc2)CC1	2.1
CC(=O)N(C)C(=O)c1cccc(CN2CCN(c3ccccc3OC(C)C)CC2)c1	388

As a next step, examine the compound that follows.
Give the value of Ki reported for the following: CC(C)Oc1ccccc1C1CCN(Cc2cccc(C(=O)N3CCCCC3)c2)CC1 2.2
